system: PANC-1; assay: Cell growth inhibition assay (resazurin, 48 h); assay type: cell-based; conditions: Homo sapiens, PANC-1, 48 h
pEC50: −log10 of the molar value.
METRIC NAME: pEC50

compound="C[C@@]12OC(=O)[C@]1([C@@H](O)[C@@H]1C=CCCC1)NC(=O)[C@@H]2CCCl [Formula II-16, Salinosporamide A]" metric_name=pEC50 assay_result=7.22

====

test system: PC-3; assay: Cell growth inhibition assay (resazurin, 48 h); conditions: PC-3, 48 h
METRIC NAME: EC50

compound="C[C@@]12OC(=O)[C@]1([C@@H](O)[C@@H]1C=CCCC1)NC(=O)[C@@H]2CCCl [Formula II-16, Salinosporamide A]" assay_result="64 nM"
